Origin of measurements: patent US20250032625A1

List of DC50 values.
# SYSTEM_TESTED: TEAD1 in NCI-H226 cells (Homo sapiens (Human), UniProt P28347)
# Sequence (P28347 whole entry): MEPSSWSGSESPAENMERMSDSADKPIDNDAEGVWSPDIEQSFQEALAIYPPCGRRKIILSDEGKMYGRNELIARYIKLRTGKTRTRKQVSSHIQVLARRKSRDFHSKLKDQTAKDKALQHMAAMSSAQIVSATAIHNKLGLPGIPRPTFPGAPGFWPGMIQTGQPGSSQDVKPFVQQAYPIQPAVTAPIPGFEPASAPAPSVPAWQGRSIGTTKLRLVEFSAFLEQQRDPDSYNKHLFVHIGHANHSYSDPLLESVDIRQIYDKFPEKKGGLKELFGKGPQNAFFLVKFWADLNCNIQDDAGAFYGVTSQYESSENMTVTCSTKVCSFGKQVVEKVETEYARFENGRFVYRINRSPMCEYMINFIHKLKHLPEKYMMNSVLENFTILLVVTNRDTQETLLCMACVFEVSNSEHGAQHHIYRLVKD
# ASSAY_TEXT: TEAD degradation in NCI-H226 cell line (immunofluorescence)
# Format: cell-based
# CONDITION_NOTES: 24 hours, ranges, read-out: DC50 NCI-H226
# Protocol: Degradation of TEAD isoform TEAD1 by exemplary compounds which has been determined at different time points in two different cell lines, SK-HEP1 and NCI-H226: For the assay, SK-HEP1 (ATCC HTB-52) and NCI-H226 (ATCC CRL-5826) cells were treated in duplicates with the test compounds in a 10-point dose, 1:3 dilution steps, with the top concentration starting at 30 uM (final concentration in assay). […] DC50 was calculated using curve fitting software Genedata Screener. […]

{"MOLECULE": "Cc1ncsc1-c1ccc(CNC(=O)[C@@H]2C[C@@H](O)CN2C(=O)[C@@H](NC(=O)CCCCCc2cnnn2CCCCCCCNC(=O)c2ccc3c(c2)c2cn(C)nc2n3-c2ccc(C(F)(F)F)cc2)C(C)(C)C)cc1 [Compound 37]", "SYSTEM_TESTED": "TEAD1 in NCI-H226 cells (Homo sapiens (Human), UniProt P28347)", "DC50": "0.1 to 1 µM"}
{"MOLECULE": "Cn1cc2c3cc(C(=O)NCCOCCOCCNC(=O)CCCCCCNc4cccc5c4C(=O)N(C4CCC(=O)NC4=O)C5=O)ccc3n(-c3ccc(C(F)(F)F)cc3)c2n1 (stereo not shown) [Compound 6]", "SYSTEM_TESTED": "TEAD1 in NCI-H226 cells (Homo sapiens (Human), UniProt P28347)", "DC50": "0.1 to 1 µM"}
{"MOLECULE": "Cn1cc2c3cc(C(=O)NCCOCCOCCNC(=O)COc4cccc5c4C(=O)N(C4CCC(=O)NC4=O)C5=O)ccc3n(-c3ccc(C(F)(F)F)cc3)c2n1 (stereo not shown) [Compound 5]", "SYSTEM_TESTED": "TEAD1 in NCI-H226 cells (Homo sapiens (Human), UniProt P28347)", "DC50": "9 to 30 µM"}
{"MOLECULE": "Cn1cc2c3cc(C(=O)NCCOCCOCCOCCOCCNc4ccc5c(c4)C(=O)N(C4CCC(=O)NC4=O)C5=O)ccc3n(-c3ccc(C(F)(F)F)cc3)c2n1 (stereo not shown) [Compound 42]", "SYSTEM_TESTED": "TEAD1 in NCI-H226 cells (Homo sapiens (Human), UniProt P28347)", "DC50": "0.1 to 1 µM"}
{"MOLECULE": "Cn1cc2c3cc(C(=O)NCCOCCOCCOCCOCCNC(=O)[C@]45CCC(C)(C)C[C@H]4[C@H]4C(=O)C=C6[C@@]7(C)C=C(C#N)C(=O)C(C)(C)[C@@H]7CC[C@@]6(C)[C@]4(C)CC5)ccc3n(-c3ccc(C(F)(F)F)cc3)c2n1 [Compound 33]", "SYSTEM_TESTED": "TEAD1 in NCI-H226 cells (Homo sapiens (Human), UniProt P28347)", "DC50": "0.1 to 1 µM"}
{"MOLECULE": "Cc1ncsc1-c1ccc(CNC(=O)[C@@H]2C[C@@H](O)CN2C(=O)[C@@H](NC(=O)CCCCCCCCCOCCOCCNC(=O)c2ccc3c(c2)c2cn(C)nc2n3-c2ccc(C(F)(F)F)cc2)C(C)(C)C)cc1 [Compound 56]", "SYSTEM_TESTED": "TEAD1 in NCI-H226 cells (Homo sapiens (Human), UniProt P28347)", "DC50": "0.1 to 1 µM"}
{"MOLECULE": "Cc1ncsc1-c1ccc(CNC(=O)[C@@H]2C[C@@H](O)CN2C(=O)[C@@H](NC(=O)CCCCCCCCCNC(=O)c2ccc3c(c2)c2cn(C)nc2n3-c2ccc(C(F)(F)F)cc2)C(C)(C)C)cc1 [Compound 20]", "SYSTEM_TESTED": "TEAD1 in NCI-H226 cells (Homo sapiens (Human), UniProt P28347)", "DC50": "0.1 to 1 µM"}
{"MOLECULE": "Cn1cc2c3cc(C(=O)NCCOCCOCCOCCOCCOCCNc4cccc5c4C(=O)N(C4CCC(=O)NC4=O)C5=O)ccc3n(-c3ccc(C(F)(F)F)cc3)c2n1 (stereo not shown) [Compound 47]", "SYSTEM_TESTED": "TEAD1 in NCI-H226 cells (Homo sapiens (Human), UniProt P28347)", "DC50": "< 0.1 µM"}
{"MOLECULE": "Cc1ncsc1-c1ccc(CNC(=O)[C@@H]2C[C@@H](O)CN2C(=O)[C@@H](NC(=O)COCCCOCCOCCNC(=O)c2ccc3c(c2)c2cn(C)nc2n3-c2ccc(C(F)(F)F)cc2)C(C)(C)C)cc1 [Compound 74]", "SYSTEM_TESTED": "TEAD1 in NCI-H226 cells (Homo sapiens (Human), UniProt P28347)", "DC50": "1 to 3 µM"}
{"MOLECULE": "Cn1cc2c3cc(C(=O)NCCOCCOCCOCCOCCNC(=O)COc4ccc5c(c4)CCCN5C(=O)CCl)ccc3n(-c3ccc(C(F)(F)F)cc3)c2n1 [Compound 31]", "SYSTEM_TESTED": "TEAD1 in NCI-H226 cells (Homo sapiens (Human), UniProt P28347)", "DC50": "9 to 30 µM"}
{"MOLECULE": "Cc1ncsc1-c1ccc([C@H](C)NC(=O)[C@@H]2C[C@@H](O)CN2C(=O)[C@@H](NC(=O)CCCCCc2cn(CCCCCCCNC(=O)c3ccc4c(c3)c3cn(C)nc3n4-c3ccc(C(F)(F)F)cc3)nn2)C(C)(C)C)cc1 [Compound 29]", "SYSTEM_TESTED": "TEAD1 in NCI-H226 cells (Homo sapiens (Human), UniProt P28347)", "DC50": "0.1 to 1 µM"}
{"MOLECULE": "Cn1cc2c3cc(C(=O)NCCOCCOCCOCCOCCNc4cccc5c4C(=O)N(C4CCC(=O)NC4=O)C5=O)ccc3n(-c3ccc(C(F)(F)F)cc3)c2n1 (stereo not shown) [Compound 28]", "SYSTEM_TESTED": "TEAD1 in NCI-H226 cells (Homo sapiens (Human), UniProt P28347)", "DC50": "< 0.1 µM"}
{"MOLECULE": "Cc1ncsc1-c1ccc(CNC(=O)[C@@H]2C[C@@H](O)CN2C(=O)[C@@H](NC(=O)CCCCCc2cn(CCCCCCNC(=O)c3ccc4c(c3)c3cn(C)nc3n4-c3ccc(C(F)(F)F)cc3)nn2)C(C)(C)C)cc1 [Compound 35]", "SYSTEM_TESTED": "TEAD1 in NCI-H226 cells (Homo sapiens (Human), UniProt P28347)", "DC50": "< 0.1 µM"}
{"MOLECULE": "Cc1ncsc1-c1ccc(CNC(=O)[C@@H]2C[C@@H](O)CN2C(=O)[C@@H](NC(=O)CCCCCCOCCOCCOCCNC(=O)c2ccc3c(c2)c2cn(C)nc2n3-c2ccc(C(F)(F)F)cc2)C(C)(C)C)cc1 [Compound 60]", "SYSTEM_TESTED": "TEAD1 in NCI-H226 cells (Homo sapiens (Human), UniProt P28347)", "DC50": "0.1 to 1 µM"}
{"MOLECULE": "Cn1cc2c3cc(C(=O)NCC#Cc4ccc(N5CCN(CCCC(=O)Nc6ccc7c(c6)CN(C6CCC(=O)NC6=O)C7=O)CC5)nc4)ccc3n(-c3ccc(C(F)(F)F)cc3)c2n1 (stereo not shown) [Compound 19]", "SYSTEM_TESTED": "TEAD1 in NCI-H226 cells (Homo sapiens (Human), UniProt P28347)", "DC50": "< 0.1 µM"}
{"MOLECULE": "Cn1nc2c3cc(C(=O)NCCOCCOCCOCCOCCNc4cccc5c4C(=O)N(C4CCC(=O)NC4=O)C5=O)ccc3n([C@H]3CC[C@H](C(F)(F)F)CC3)c2n1 (stereo partly shown) [Compound 95]", "SYSTEM_TESTED": "TEAD1 in NCI-H226 cells (Homo sapiens (Human), UniProt P28347)", "DC50": "0.1 to 1 µM"}
{"MOLECULE": "Cn1cc2c3cc(C(=O)NCCOCCOCCOCCOCCOc4cccc5c4C(=O)N(C4CCC(=O)NC4=O)C5=O)ccc3n(-c3ccc(C(F)(F)F)cc3)c2n1 (stereo not shown) [Compound 16]", "SYSTEM_TESTED": "TEAD1 in NCI-H226 cells (Homo sapiens (Human), UniProt P28347)", "DC50": "0.1 to 1 µM"}
{"MOLECULE": "Cc1ncsc1-c1ccc(CNC(=O)[C@@H]2C[C@@H](O)CN2C(=O)[C@@H](NC(=O)CCCCCc2cn(CCCCCCCNC(=O)c3ccc4c(c3)c3cn(C)nc3n4-c3ccc(C(F)(F)F)cc3)nn2)C(C)(C)C)cc1 [Compound 34]", "SYSTEM_TESTED": "TEAD1 in NCI-H226 cells (Homo sapiens (Human), UniProt P28347)", "DC50": "0.1 to 1 µM"}
{"MOLECULE": "Cn1cc2c3cc(C(=O)NCCOCCOCCNC(=O)CCCCCCNc4cccc5c4CN(C4CCC(=O)NC4=O)C5=O)ccc3n(-c3ccc(C(F)(F)F)cc3)c2n1 (stereo not shown) [Compound 15]", "SYSTEM_TESTED": "TEAD1 in NCI-H226 cells (Homo sapiens (Human), UniProt P28347)", "DC50": "1 to 3 µM"}
